Assignment: determine reported growth for the given compounds.
# System: SN12C renal
# Assay remarks: NCI-60 one-dose screen, 48 h (100 = growth as untreated, 0 = no growth, -100 = all killed)
# Condition info: 10 µM unless noted
# Experimental: Growth inhibition of the SN12C human tumor cell line is measured as a screen for anti-cancer activity. Cells are grown in 96 well plates and exposed to the test compound for 48 hours. Compounds are tested at a single concentration, which is 10^-5 M for most compounds. The reported endpoint is percent growth (GI% or GIPRCNT), where numbers from 0 - 100% represent growth inhibition, and numbers from -100% - 0 represent cell death. For example, a value of 40 represents 60% growth inhibition. […]
About 83,000 compounds went through this panel and 20% of them were active in at least one assay; those are over-represented in the sample as a whole.
Give bare numbers, in %.

Example entries begin here.
The reported value for Nc1nc2ccc(-c3nc4ccc5[nH]ncc5c4c4c3CCCC4)cc2s1 in terms of growth is 98.8

The reported value for COc1ccc(-c2cc(-c3ccc(Cl)cc3)c(C#N)c(=O)n2Cc2ccc(C(=O)Nc3ccccc3N)cc2)cc1 in terms of growth is 79.1

The reported value for CCn1cc(C(=O)O)c(=O)c2cc(F)c(N3CCN(CC(=O)Nc4ccc(S(=O)(=O)Nc5nccc(C)n5)cc4)C(C)C3)c(F)c21 (stereo not given) in terms of growth is 98

The reported value for CCOC(=O)c1csc(NC(=O)COc2ccc(/C=C3\Oc4ccccc4C3=O)cc2)n1 in terms of growth is 91

The reported value for CCOC(=O)C1=C(C)NC(=O)NC1c1c(Cl)n(CCCl)c2ccccc12 (stereo not given) in terms of growth is 101

Give growth for each of the items listed below.
1. CCCCC1=C(P(=O)(O)O)N[C@H](C(=O)O)CS1
2. Cn1ccc(=O)c(C(=O)Nc2nsc3ccc([N+](=O)[O-])cc23)c1
3. O=C(Nc1cccc(-c2ccc(N3CCOCC3)nn2)c1)Nc1cccc(C(F)(F)F)c1

A:
1. 88.2
2. 75.3
3. 66.6

Give growth for each of the items listed below.
1. COc1cc(C2c3cc(OC(C)=O)c(OC)cc3CC3C(=O)OCC32)ccc1OC(C)=O (stereo not given)
2. Cn1cc(-c2ccc3nc(-c4ccc(CC(=O)ONc5cc(C(C)(C)C)on5)cc4)cnc3c2)cn1

A:
[93.2, 26.1]
